Taken from ChEMBL document CHEMBL1201862.

Tested on: RPMI-8226
Test: NCI tumour cell line growth inhibition, 48 h
Structures can show the parent of a compound that is named as a salt. Calls of active or inactive are those of the source. Rule as the data show it: active = GI50 up to about 1.1 µM and inactive = higher.
MEASUREMENT_NAME: GI50

// query Kindly state the measured GI50 obtained for CC(C)(C)[Si](C)(C)Oc1ccc(C2CNC(=O)C23CCC(=O)N3Cc2ccccc2)cc1 (stereo unspecified) with RPMI-8226.
// result 4.15 µM (inactive)

// query Kindly state the measured GI50 obtained for CN1CCc2[nH]c3ccccc3c2C1 with RPMI-8226.
// result > 100 µM (inactive)

// query Kindly state the measured GI50 obtained for O=P(Oc1ccc2ccccc2c1)(N1CC1)N1CC1 with RPMI-8226.
// result > 100 µM (inactive)

// query Kindly state the measured GI50 obtained for Cc1ccccc1/N=N/c1ccc(/N=N/c2c(O)ccc3ccccc23)c(C)c1 [SCARLET RED] with RPMI-8226.
// result > 100 µM (inactive)

// query Kindly state the measured GI50 obtained for CC1C(=O)C23OC[C@@]1(C)C1(O)CC[C@@H](C)[C@]21CC3=O (stereo partly specified) with RPMI-8226.
// result > 100 µM (inactive)

// query Kindly state the measured GI50 obtained for CN1CCN(c2cc3nc4cc(O)cc(O)c4c(O)c3cc2N)CC1 with RPMI-8226.
// result 20.8 µM (inactive)

// query Kindly state the measured GI50 obtained for NCc1cc(O)c(O)c(O)c1 with RPMI-8226.
// result 33.7 µM (inactive)

// query Kindly state the measured GI50 obtained for CC(O)C1OC(n2ccc(=O)[nH]c2=O)CC1n1cncn1 (stereo unspecified) with RPMI-8226.
// result > 100 µM (inactive)

// query Kindly state the measured GI50 obtained for CCOC1=C2N=C(Cc3ccccc3F)N=C2C(=O)c2ccccc21 with RPMI-8226.
// result > 100 µM (inactive)

// query Kindly state the measured GI50 obtained for Cc1c(C(=O)C/C(=N/NC(=O)c2ccccc2)C(=O)Nc2ccc(Cl)cc2)[n+]([O-])c2ccccc2[n+]1[O-] with RPMI-8226.
// result 80.4 µM (inactive)

// query Kindly state the measured GI50 obtained for COc1ccc(O[C@H](COCc2ccccc2)C[C@@H]2COC(C)(C)O2)cc1 with RPMI-8226.
// result > 100 µM (inactive)

// query Kindly state the measured GI50 obtained for O=C(/C=C/C=C/c1ccccc1)c1ccc2c(c1)CCCC2 with RPMI-8226.
// result 24.4 µM (inactive)

// query Kindly state the measured GI50 obtained for N#Cc1nc(C#N)c(NC(=O)c2ccccc2C(=O)O)[nH]1 with RPMI-8226.
// result > 100 µM (inactive)

// query Kindly state the measured GI50 obtained for CCN(CC)c1ccc(/N=C2\C=C(Cl)C(=O)c3ncccc32)c(C)c1 with RPMI-8226.
// result 3.37 µM (inactive)

// query Kindly state the measured GI50 obtained for CC(C)NC1CCCCC2c3ccccc3C12O (stereo unspecified) with RPMI-8226.
// result > 100 µM (inactive)

// query Kindly state the measured GI50 obtained for CCOC(=O)c1ccc(N2C(=O)/C(=C\OC)c3ccccc3C2=O)cc1 with RPMI-8226.
// result 27.8 µM (inactive)

// query Kindly state the measured GI50 obtained for CNCCC=C1c2ccccc2CCc2ccccc21 [NORTRIPTYLINE HYDROCHLORIDE] with RPMI-8226.
// result 12.6 µM (inactive)

// query Kindly state the measured GI50 obtained for O=C(Nc1ccccc1)N1C(c2ccccc2)=N[C@@H](c2ccccc2)[C@@H]1c1ccccc1 with RPMI-8226.
// result 22.5 µM (inactive)

// query Kindly state the measured GI50 obtained for COC(=O)C1=C(O)C(C(=O)OC)[C@]2(O)[C@H](C(=O)OC)[C@H]1C[C@@H](c1ccc(OC)cc1)[C@H]2C(=O)OC (stereo partly specified) with RPMI-8226.
// result 12.4 µM (inactive)

// query Kindly state the measured GI50 obtained for O=[N+]([O-])/C(C(Cl)=C(Cl)Cl)=C(\Nc1cccc2ccccc12)n1nnc2ccccc21 with RPMI-8226.
// result 23.3 µM (inactive)

// query Kindly state the measured GI50 obtained for N#Cc1c2c(c(N=P(c3ccccc3)(c3ccccc3)c3ccccc3)n3c1nc1ccccc13)CCCC2 with RPMI-8226.
// result 14.8 µM (inactive)

----------
Tested on: SW-620
Test: NCI tumour cell line growth inhibition, 48 h
Structures can show the parent of a compound that is named as a salt. Activity calls are given as the source filed them. Rule as the data show it: active = GI50 up to about 1.1 µM and inactive = higher.
MEASUREMENT_NAME: GI50

// query Kindly state the measured GI50 obtained for Cc1c2ccncc2c(C)c2c1[nH]c1ccc(OC(C)(C)C)cc12 with SW-620.
// result 2.14 µM (inactive)

// query Kindly state the measured GI50 obtained for CCOC(=O)c1[nH]c2cccc3c2c1CC[C@H](NC(=O)C(F)(F)F)C3=O with SW-620.
// result 76.7 µM (inactive)

// query Kindly state the measured GI50 obtained for CNCCC=C1c2ccccc2CCc2ccccc21 [NORTRIPTYLINE HYDROCHLORIDE] with SW-620.
// result 17.7 µM (inactive)

// query Kindly state the measured GI50 obtained for Clc1nc2n(c1/C=C/c1cccs1)CCS2 with SW-620.
// result 26.9 µM (inactive)

// query Kindly state the measured GI50 obtained for N#Cc1nc(-c2cccs2)oc1N with SW-620.
// result > 100 µM (inactive)

// query Kindly state the measured GI50 obtained for O=C1c2cc(Br)ccc2-c2ccc3c4ccc5c6c(ccc(c7ccc1c2c73)c64)C(=O)c1cc(Br)ccc1-5 with SW-620.
// result > 100 µM (inactive)

----------
Tested on: DMS-273
Test: NCI tumour cell line growth inhibition, 48 h
Activity calls are given as the source filed them. Rule as the data show it: active = GI50 up to about 1.1 µM and inactive = higher.
Write down the outcome that applies. Available outcomes: active, inactive

// query I'd appreciate the recorded outcome for COc1ccc(C(O)/C(=N\NC(N)=S)c2nc3ccc([N+](=O)[O-])cc3nc2O)cc1OC (configuration not stated) from this test.
// result inactive

// query I'd appreciate the recorded outcome for C[C@]12CC[C@H](O)CC1=CC[C@@H]1C2CC[C@]2(C)Nc3c(cnn3-c3ccccc3)CC12 (some centres not stated) from this test.
// result active

// query I'd appreciate the recorded outcome for O=C1C(Cl)=C(Cl)C(=O)N1c1ccc(F)cc1 [FLUOROIMIDE] from this test.
// result inactive

// query I'd appreciate the recorded outcome for O=C(O)c1cc(S(=O)(=O)N/N=C\c2c3ccccc3[n+]([O-])c3ccccc23)ccc1O from this test.
// result inactive

// query I'd appreciate the recorded outcome for c1ccc(Nc2nnc(-c3nsc4ccccc34)o2)cc1 from this test.
// result inactive

// query I'd appreciate the recorded outcome for ClCCCN1CCCCC1CCl (configuration not stated) from this test.
// result inactive

// query I'd appreciate the recorded outcome for CCOP(=O)(OCC)C(C(=O)OC)C(=O)C(=O)Nc1ccc(Cl)cc1Cl (configuration not stated) from this test.
// result inactive

// query I'd appreciate the recorded outcome for Nc1nc(Cl)c2ncn(CCCC(c3ccccc3)P(=O)(O)O)c2n1 (configuration not stated) from this test.
// result inactive

// query I'd appreciate the recorded outcome for N#Cc1c2c(c(N=P(c3ccccc3)(c3ccccc3)c3ccccc3)n3c1nc1ccccc13)CCCC2 from this test.
// result inactive

// query I'd appreciate the recorded outcome for CC[n+]1c(/C=C/c2ccc(N(CCCl)CCCl)cc2)ccc2cc(I)ccc21 from this test.
// result active

// query I'd appreciate the recorded outcome for CC(C)(C)CC(C)(C)c1cc2c(O)c(c1)Cc1cc(C(C)(C)CC(C)(C)C)cc(c1O)Cc1cc(C(C)(C)CC(C)(C)C)cc(c1O)Cc1cc(C(C)(C)CC(C)(C)C)cc(c1O)Cc1cc(C(C)(C)CC(C)(C)C)cc(c1O)Cc1cc(C(C)(C)CC(C)(C)C)cc(c1O)C2 from this test.
// result inactive

// query I'd appreciate the recorded outcome for O=C1NC2OCC(O)C(O)C2O1 (configuration not stated) from this test.
// result inactive

// query I'd appreciate the recorded outcome for CC(C)S(=O)(=O)n1c(N)nc2ccc(/C(=N/O)c3ccccc3)cc21 from this test.
// result inactive

// query I'd appreciate the recorded outcome for COC12OCCN(C)C1=CC(=O)C1=NNC(C)C12 (configuration not stated) from this test.
// result inactive

// query I'd appreciate the recorded outcome for CCCN(CCC)c1c([N+](=O)[O-])cc(C(=O)N(CC)CC)cc1[N+](=O)[O-] from this test.
// result inactive

// query I'd appreciate the recorded outcome for CC1=Nn2c(nnc2-c2ccc(N)cc2)NC(C)(C)C1 from this test.
// result inactive

// query I'd appreciate the recorded outcome for O=C(/C=C\c1cccc2ccccc12)c1cccc2ccccc12 from this test.
// result inactive

// query I'd appreciate the recorded outcome for CN(C)/N=N/c1c[nH]nc1C(N)=O from this test.
// result inactive

// query I'd appreciate the recorded outcome for NCc1cc(O)c(O)c(O)c1 from this test.
// result inactive

// query I'd appreciate the recorded outcome for CCCCCCCCCCn1cccc1/C=C/c1ccc(/C=C/c2cccn2CCCCCCCCCC)cc1 from this test.
// result inactive

// query I'd appreciate the recorded outcome for COc1cc(/C=C/C(=O)c2sc(NNC(C)=O)nc2C)ccc1O from this test.
// result inactive

// query I'd appreciate the recorded outcome for O=C1CCC(c2nc3ccccc3o2)C(=O)N1 (configuration not stated) from this test.
// result inactive
